These entries and their values trace back to patent US20110118447A1.

# TARGET OF ASSAY: binding partner of C5A (XPA23)
# MEASUREMENT PROTOCOL: Biacore K-off
So I've got a bunch of binders here, and I need their fold difference in affinity vs original values.
Could you give me the number in fold? Just the number is fine.

**Query** For the binder shown here, C5A (XPA23) VL T52L (antibody, V domains shown) VH: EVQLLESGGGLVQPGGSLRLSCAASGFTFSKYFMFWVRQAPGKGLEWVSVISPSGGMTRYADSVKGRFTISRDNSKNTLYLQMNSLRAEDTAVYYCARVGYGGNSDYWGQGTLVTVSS VL: DIQMTQSPSSVSASVGDRLTIICRASQDINRWLAWYQQTPGNAPKLLIHSALSLQSGVPSRFSGSGSGTDFTLTINSLQPEDFATYYCQQADSFPLTFGGGTKVEIK , give the reported fold difference in affinity vs original.
**Result** 0.78

**Query** Also C5A (XPA23) VL S53I (antibody, V domains shown) VH: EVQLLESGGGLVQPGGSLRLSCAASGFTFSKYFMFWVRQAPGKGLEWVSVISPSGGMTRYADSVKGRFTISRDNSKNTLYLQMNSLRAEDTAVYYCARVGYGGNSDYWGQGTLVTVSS VL: DIQMTQSPSSVSASVGDRLTIICRASQDINRWLAWYQQTPGNAPKLLIHSATILQSGVPSRFSGSGSGTDFTLTINSLQPEDFATYYCQQADSFPLTFGGGTKVEIK , if possible.
**Result** 1.42

**Query** Also C5A (XPA23) VL N30L (antibody, V domains shown) VH: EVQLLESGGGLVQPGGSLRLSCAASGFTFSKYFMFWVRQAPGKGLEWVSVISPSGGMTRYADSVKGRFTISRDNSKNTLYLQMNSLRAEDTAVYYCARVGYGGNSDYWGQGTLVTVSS VL: DIQMTQSPSSVSASVGDRLTIICRASQDILRWLAWYQQTPGNAPKLLIHSATSLQSGVPSRFSGSGSGTDFTLTINSLQPEDFATYYCQQADSFPLTFGGGTKVEIK , if possible.
**Result** 0.68
